Taken from patent US8063212B2.

# System: HeLa Cells
# experiment_description: pHH3(S10), Mitotic Cells, and DNA Content Assays
# Type: cell-based
# measurement_context: Homo sapiens, 23 hours exposure, n=1, MSR 2.5, read-out: mitotic EC50
pEC50: −log10 of the molar value.
observable: pEC50

CN(C)Cc1cnc(F)cc1-c1cccc2cc(-c3ccnc(NCCN4CCNC4=O)n3)sc12 7.66
